# Interaction Distances P2-Gly253 values compiled below
# target_system: human calpain 9 (Homo sapiens, UniProt O14815)
# Construct: human calpain 9, residues 27-347, was over expressed in E. coli BL21 (DE3); hexa-histidine (N); made in house; host or cells: E. coli BL21 (DE3)
# Sequence (O14815 27-347): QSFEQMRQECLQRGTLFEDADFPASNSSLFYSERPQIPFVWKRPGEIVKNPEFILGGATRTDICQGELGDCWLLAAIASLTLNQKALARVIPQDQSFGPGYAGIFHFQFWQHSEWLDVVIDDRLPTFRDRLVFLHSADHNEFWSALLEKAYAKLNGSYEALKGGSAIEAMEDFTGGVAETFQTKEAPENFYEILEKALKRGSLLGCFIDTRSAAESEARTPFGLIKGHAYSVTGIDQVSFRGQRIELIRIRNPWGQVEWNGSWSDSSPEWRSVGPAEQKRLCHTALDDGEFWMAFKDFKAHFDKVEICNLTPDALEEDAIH
# test_description: Calpain binding: crystal structure interaction distances, human calpain 9
# condition_context: non-polar interactions with human calpain 9
property_measured: Interaction Distances P2-Gly253

compound	result
CCCC[C@H](NC(=O)c1oc(C)nc1-c1ccccc1)C(=O)C(N)=O [Compound 265]	2.9 Å
Cn1cc(C(=O)N[C@@H](Cc2ccccc2)C(=O)C(N)=O)c(-c2ccccc2)n1 [Compound 32]	3.1 Å
NC(=O)C(=O)[C@H](Cc1ccccc1)NC(=O)c1nsnc1-c1ccccc1 [Compound 72]	3.2 Å
NC(=O)C(=O)[C@H](Cc1ccccc1)NC(=O)c1snnc1-c1ccccc1 [Compound 44]	3.4 Å

* * *

# target_system: Human Calpain 1/NS1 (Homo sapiens, UniProt P07384)
# Sequence (P07384 whole entry): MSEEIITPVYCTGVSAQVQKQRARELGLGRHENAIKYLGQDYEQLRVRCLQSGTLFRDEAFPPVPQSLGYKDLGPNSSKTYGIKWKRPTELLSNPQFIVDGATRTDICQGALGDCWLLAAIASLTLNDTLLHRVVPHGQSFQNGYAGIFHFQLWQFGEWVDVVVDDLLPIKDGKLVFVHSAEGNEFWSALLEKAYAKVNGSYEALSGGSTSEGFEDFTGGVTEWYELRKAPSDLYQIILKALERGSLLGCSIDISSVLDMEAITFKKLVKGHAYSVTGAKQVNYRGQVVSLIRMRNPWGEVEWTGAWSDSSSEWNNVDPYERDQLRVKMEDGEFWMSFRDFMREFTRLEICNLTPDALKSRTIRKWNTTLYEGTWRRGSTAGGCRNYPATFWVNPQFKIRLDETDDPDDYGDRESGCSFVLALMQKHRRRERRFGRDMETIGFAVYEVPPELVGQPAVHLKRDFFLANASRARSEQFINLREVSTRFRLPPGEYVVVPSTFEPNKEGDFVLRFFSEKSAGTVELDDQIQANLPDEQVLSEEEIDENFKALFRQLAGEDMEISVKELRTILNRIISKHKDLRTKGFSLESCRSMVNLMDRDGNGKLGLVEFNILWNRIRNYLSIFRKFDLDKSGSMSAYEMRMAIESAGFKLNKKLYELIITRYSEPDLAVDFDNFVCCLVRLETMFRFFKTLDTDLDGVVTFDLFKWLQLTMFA
# Sequence (P04632 whole entry partner): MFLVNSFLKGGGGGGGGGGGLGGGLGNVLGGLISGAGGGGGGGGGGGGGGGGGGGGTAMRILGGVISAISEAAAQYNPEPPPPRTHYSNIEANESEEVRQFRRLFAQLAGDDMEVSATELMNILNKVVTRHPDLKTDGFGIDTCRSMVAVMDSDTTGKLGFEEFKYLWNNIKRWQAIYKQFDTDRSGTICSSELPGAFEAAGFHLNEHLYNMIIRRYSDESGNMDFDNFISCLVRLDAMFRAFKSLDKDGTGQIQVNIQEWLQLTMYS
# test_description: Calpain inhibition continuous fluorescence (FRET) assay, Human Calpain 1/NS1
# Assay type: biochemical
# condition_context: read-out: Human Calpain 1/NS1 IC50
# IC50 values compiled below
property_measured: IC50

compound	result
Cn1cc(C(=O)NC(Cc2ccccc2)C(=O)C(N)=O)c(-c2cccc3c2OC(F)(F)O3)n1 (stereo not drawn)	< 3 µM
NC(=O)C(=O)C(Cc1ccccc1)NC(=O)c1cn(C(F)F)nc1-c1cccc2c1OCO2 (stereo not drawn)	< 3 µM
NC(=O)C(=O)C(Cc1ccccc1)NC(=O)c1nsnc1-c1cccc(F)c1 (stereo not drawn)	< 3 µM
COc1ccccc1-c1nn(C)cc1C(=O)NC(Cc1ccccc1)C(=O)C(N)=O (stereo not drawn)	< 3 µM
Cc1cc(C(=O)N[C@@H](Cc2ccccc2)C(=O)C(N)=O)nn1-c1ccnc(Cl)n1	> 10 µM
Cc1nc(-c2ccccc2)c(C(=O)N[C@@H](CCc2ccccc2)C(=O)C(N)=O)o1	< 3 µM
Cn1cc(C(=O)NC(Cc2ccccc2)C(=O)C(N)=O)c(C2CCCN(C(=O)OC(C)(C)C)C2)n1 (stereo not drawn)	< 3 µM
Cc1ccc(F)cc1-c1nn(C(F)F)cc1C(=O)NC(Cc1ccccc1)C(=O)C(N)=O (stereo not drawn)	< 3 µM
O=C(NC1CC1)C(=O)C(Cc1ccccc1)NC(=O)c1cnoc1-c1ccccc1 (stereo not drawn)	< 3 µM
NC(=O)C(=O)C(Cc1ccccc1)NC(=O)c1cn(C(F)F)nc1-c1cncc2ccccc12 (stereo not drawn)	< 3 µM
Cn1cc(C(=O)NC(Cc2ccccc2)C(=O)C(N)=O)c(-c2ccc3ccccc3c2)n1 (stereo not drawn)	< 3 µM
Cc1c(F)cccc1-c1nsnc1C(=O)NC(Cc1ccccc1)C(=O)C(N)=O (stereo not drawn)	< 3 µM
Cn1cc(C(=O)NC(Cc2ccccc2)C(=O)C(N)=O)c(-c2ccsc2Cl)n1 (stereo not drawn)	< 3 µM
NC(=O)C(=O)C(CCc1ccccc1)NC(=O)c1nsnc1-c1ccccc1 (stereo not drawn)	< 3 µM
Cc1cccc(-c2nn(C)cc2C(=O)NC(Cc2ccccc2)C(=O)C(N)=O)n1 (stereo not drawn)	> 10 µM
CC(C)CC(NC(=O)c1nsnc1-c1ccccc1)C(=O)C(N)=O (stereo not drawn)	< 3 µM
NC(=O)C(=O)C(Cc1ccccc1)NC(=O)c1cn(C(F)F)nc1-c1cccc2c1OC(F)(F)O2 (stereo not drawn)	< 3 µM
NC(=O)C(=O)C(Cc1ccccc1)NC(=O)c1nsnc1-c1cccc(F)c1F (stereo not drawn)	< 3 µM
NC(=O)C(=O)C(Cc1ccccc1)NC(=O)c1nsnc1-c1ccncc1 (stereo not drawn)	< 3 µM
Cn1cc(C(=O)NC(Cc2ccccc2)C(=O)C(N)=O)c(C2CC2)n1 (stereo not drawn)	3 to 10 µM
Cn1cc(C(=O)NC(Cc2ccccc2)C(=O)C(N)=O)c(N2CCN(C(=O)OCc3ccccc3)CC2)n1 (stereo not drawn)	3 to 10 µM
NC(=O)C(=O)C(Cc1ccccc1)NC(=O)c1cn(C(F)F)nc1-c1ccc2ccccc2n1 (stereo not drawn)	< 3 µM
CCn1ncc(Cl)c1C(=O)N[C@@H](Cc1ccccc1)C(=O)C(N)=O	< 3 µM
NC(=O)C(=O)C(Cc1ccccc1)NC(=O)c1cc(Cl)nn1-c1ncccn1 (stereo not drawn)	< 3 µM
NC(=O)C(=O)C(Cc1ccccc1)NC(=O)c1cn(-c2ccccc2F)nc1-c1ccccc1 (stereo not drawn)	< 3 µM
Cc1nc(-c2ccccc2)c(C(=O)N[C@@H](Cc2ccccc2)C(=O)CF)o1	3 to 10 µM
Cn1cc(C(=O)NC(Cc2ccccc2)C(=O)C(N)=O)c(C2CCOC2)n1 (stereo not drawn)	3 to 10 µM
Cn1cc(C(=O)NC(Cc2ccccc2)C(=O)C(N)=O)c(-c2cccc(C(F)(F)F)c2F)n1 (stereo not drawn)	< 3 µM
Cc1nc(-c2ccccc2F)c(C(=O)NC(C=O)Cc2ccccc2)o1 (stereo not drawn)	< 3 µM
Cc1nc(-c2ccccc2)c(C(=O)NC(Cc2ccccc2)C(=O)C(=O)NC2CC2)o1 (stereo not drawn)	< 3 µM
Cc1nc(-c2ccccc2F)c(C(=O)N[C@H](Cc2ccccc2)C(=O)C(N)=O)o1	< 3 µM
Cn1cc(C(=O)NC(C=O)c2ccccc2C(F)(F)F)c(-c2ccccc2F)n1 (stereo not drawn)	> 10 µM
NC(=O)C(=O)C(Cc1ccccc1)NC(=O)c1nsnc1-c1ccncn1 (stereo not drawn)	< 3 µM

* * *

# System: Calpain activity in SH-SY5Y cells
# test_description: SH-SY5Y + AMC fluorescence assay (Suc-LLVY-AMC substrate)
# Format: cell-based
# condition_context: read-out: SH-SY5Y + AMC IC50
pIC50: −log10 of the molar value.
# pIC50 values compiled below

compound	target_system	pIC50
Cn1cc(C(=O)NC(Cc2ccccc2)C(=O)C(N)=O)c(-c2cc3ccccc3cn2)n1 (centres unmarked)	Calpain activity in SH-SY5Y cells	< 4.60
Cc1cc(-c2nn(C)cc2C(=O)NC(Cc2ccccc2)C(=O)C(N)=O)c(C)s1 (centres unmarked)	Calpain activity in SH-SY5Y cells	> 5.00
Cc1nc(-c2ccccc2F)c(C(=O)N[C@H](Cc2ccccc2)C(=O)C(N)=O)o1	Calpain activity in SH-SY5Y cells	> 5.00
NC(=O)C(=O)[C@@H](Cc1ccccc1)NC(=O)c1cn(C(F)F)nc1-c1ccccc1	Calpain activity in SH-SY5Y cells	> 5.00
Cc1cc(C(=O)NC(Cc2ccccc2)C(=O)C(N)=O)n(-c2ncccn2)n1 (centres unmarked)	Calpain activity in SH-SY5Y cells	> 5.00
Cc1ccc(F)c(-c2nn(C(F)F)cc2C(=O)NC(Cc2ccccc2)C(=O)C(N)=O)c1 (centres unmarked)	Calpain activity in SH-SY5Y cells	> 5.00
Cc1noc(-c2ccccc2)c1C(=O)N[C@@H](Cc1ccc(O)cc1)C(=O)C(N)=O	Calpain activity in SH-SY5Y cells	< 4.60
NC(=O)C(=O)C(Cc1ccccc1)NC(=O)c1cn(C(F)F)nc1-c1ccccn1 (centres unmarked)	Calpain activity in SH-SY5Y cells	4.60 to 5.00
Cc1nc(-c2cccc(F)c2)c(C(=O)NC(Cc2ccccc2)C(=O)C(N)=O)o1 (centres unmarked)	Calpain activity in SH-SY5Y cells	> 5.00
Cc1cc(C(=O)N[C@@H](Cc2ccccc2)C(=O)CF)n(-c2ccccn2)n1	Calpain activity in SH-SY5Y cells	< 4.60
NC(=O)C(=O)C(Cc1ccccc1)NC(=O)c1nsnc1-c1cccc(F)c1F (centres unmarked)	Calpain activity in SH-SY5Y cells	> 5.00
Cl.Cn1cc(C(=O)NC(Cc2ccccc2)C(=O)C(N)=O)c(-c2cccc(F)c2)n1 (centres unmarked) [Compound 485, hydrochloride]	Calpain activity in SH-SY5Y cells	4.60 to 5.00
Cc1cc(C(=O)N[C@H](C=O)Cc2ccccc2)n(-c2ncccn2)n1	Calpain activity in SH-SY5Y cells	4.60 to 5.00
Cn1cc(C(=O)N[C@H](C=O)Cc2ccccc2)c(-c2ccccc2)n1	Calpain activity in SH-SY5Y cells	< 4.60
COc1ccccc1-c1nn(C)cc1C(=O)NC(Cc1ccccc1)C(=O)C(N)=O (centres unmarked)	Calpain activity in SH-SY5Y cells	< 4.60
Cc1cc(C(=O)N[C@@H](Cc2ccccc2)C(=O)C(N)=O)n(-c2cccc(CNC(=O)Oc3ccccc3)c2)n1	Calpain activity in SH-SY5Y cells	4.60 to 5.00
Cc1cc(C)cc(C[C@H](NC(=O)c2oc(C)nc2-c2ccccc2)C(=O)C(N)=O)c1	Calpain activity in SH-SY5Y cells	4.60 to 5.00
NC(=O)C(=O)C(Cc1ccccc1)NC(=O)c1oc(C(F)(F)F)nc1-c1ccccc1F (centres unmarked)	Calpain activity in SH-SY5Y cells	> 5.00
Cc1cc(C(=O)NC(Cc2ccccc2)C(=O)C(N)=O)n(-c2ccnc(C#N)n2)n1 (centres unmarked)	Calpain activity in SH-SY5Y cells	4.60 to 5.00
Cc1nc(-c2ccccc2)c(C(=O)N[C@@H](Cc2ccccc2)C(=O)CF)o1	Calpain activity in SH-SY5Y cells	< 4.60
NC(=O)C(=O)C(Cc1ccccc1)NC(=O)c1nsnc1-c1ccc2c(c1)C(=O)N(Cc1ccccc1)C2 (centres unmarked)	Calpain activity in SH-SY5Y cells	< 4.60
NC(=O)C(=O)C(Cc1ccccc1)NC(=O)c1cn(C2CC2)nc1-c1ccccc1 (centres unmarked)	Calpain activity in SH-SY5Y cells	> 5.00
Cn1cc(C(=O)NC(C=O)Cc2ccccc2)c(-c2ccccc2F)n1 (centres unmarked)	Calpain activity in SH-SY5Y cells	4.60 to 5.00
NC(=O)C(=O)C(Cc1ccccc1)NC(=O)c1nc(C2CC2)oc1-c1ccccc1 (centres unmarked)	Calpain activity in SH-SY5Y cells	< 4.60
Cn1cc(C(=O)NC(Cc2ccccc2)C(=O)C(N)=O)c(-c2cccc3c2OCO3)n1 (centres unmarked)	Calpain activity in SH-SY5Y cells	> 5.00
Cn1cc(C(=O)NC(Cc2ccccc2)C(=O)C(N)=O)c(-c2ccsc2Cl)n1 (centres unmarked)	Calpain activity in SH-SY5Y cells	> 5.00
Cc1cc(C(=O)NC(Cc2ccccc2)C(=O)C(N)=O)n(-c2ccnc(C(C)C)n2)n1 (centres unmarked)	Calpain activity in SH-SY5Y cells	> 5.00
Cn1cc(C(=O)N[C@@H](Cc2ccccc2)C(=O)CF)c(-c2ccccc2)n1	Calpain activity in SH-SY5Y cells	< 4.60
CC[C@@H](C)[C@H](NC(=O)c1cn(C)nc1-c1ccccc1)C(=O)C(N)=O	Calpain activity in SH-SY5Y cells	< 4.60
Cc1cncc(-c2oncc2C(=O)NC(Cc2ccccc2)C(=O)C(N)=O)c1 (centres unmarked)	Calpain activity in SH-SY5Y cells	< 4.60
CC(C)n1cc(C(=O)NC(Cc2ccccc2)C(=O)C(N)=O)c(-c2cccc(F)c2)n1 (centres unmarked)	Calpain activity in SH-SY5Y cells	4.60 to 5.00
COCCOCCNC(=O)C(=O)[C@H](Cc1ccccc1)NC(=O)c1cn(C)nc1-c1ccccc1	Calpain activity in SH-SY5Y cells	> 5.00
